Molecular target: T1, human GITR-Fc (Enzo Life Sciences, ALX-522-061-C050) (human, UniProt Q9Y5U5 26-162)
T1 construct: Bought protein; not shown: Fc part of the bought fusion protein; not described
T1 sequence: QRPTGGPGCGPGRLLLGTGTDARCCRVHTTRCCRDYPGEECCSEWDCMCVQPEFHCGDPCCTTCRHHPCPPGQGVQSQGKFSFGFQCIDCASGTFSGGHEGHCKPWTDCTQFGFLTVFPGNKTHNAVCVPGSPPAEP
Experiment: ProteOn XPR36; human GITR-Fc amine-coupled on GLC chip, Nanobody injected at 6 concentrations
experimental endpoint: koff
Form field: result (number plus unit)

binder="A0231051E01 (VHH, Monovalent Nanobody expressed in E. coli with a triple Flag, HIS6 tag; also called A0231PMP051E01; PA0231PMP051E01.1; not shown: C-terminal triple FLAG and HIS6 tag) VHH: EVQLVESGGGLVQAGGSLRLSCAASGSIFSFIVMGWYRQAPGEQRALVATVTSGGDTFYVDSVKDRFTISRDNAKNTVYLQMNSLKPEDTAVYFCYFTKVSPYKETTWGQGTLVTVSS" recorded_value="0.015 s⁻¹"
binder="A0231004B01 (VHH, Monovalent Nanobody expressed in E. coli with a triple Flag, HIS6 tag; also called A0231PMP004B01; PA0231PMP004B01.1; not shown: C-terminal triple FLAG and HIS6 tag) VHH: EVQLVESGGGLVQPGGSLRLSCAASGSIFSIDSMGWYRQAPGKQRELVAAITSSTNYADSVKGRFTISRDNAKNTVYLQMNSLKPEDTAVYYCNLEGQAGWGTALINYWGKGTLVTVSS" recorded_value="0.0027 s⁻¹"
binder="A0231052A08 (VHH, Monovalent Nanobody expressed in E. coli with a triple Flag, HIS6 tag; also called A0231PMP052A08; PA0231PMP052A08.1; not shown: C-terminal triple FLAG and HIS6 tag) VHH: EVQLVESGGGLVQAGGSLRLSCVASGSISSITAMGWHRQAPGAQREGVAVISRSGATMLVDSVKGRFTIVQDNAKNTVYLQMNSLKVEDTAVYGCSAITQGRTYWGQGTLVTVSS" recorded_value="0.00097 s⁻¹"

# map each binder to its koff
1. A0231052E08 (VHH, Monovalent Nanobody expressed in E. coli with a triple Flag, HIS6 tag; also called A0231PMP052E08; PA0231PMP052E08.1; not shown: C-terminal triple FLAG and HIS6 tag) VHH: EVQLVESGGGLVQAGGSLRLSCTGSRSIFSTYAMAWHRQAPGKQRELVGFIYWGGTTTYSDSVKGRFTISRDNAKNTMYLQMNSLKPEDAGVYYCNIYGSYALPWGQGTLVTVSS
2. A0231005A03 (VHH, Monovalent Nanobody expressed in E. coli with a triple Flag, HIS6 tag; also called A0231PMP005A03; PA0231PMP005A03.1; not shown: C-terminal triple FLAG and HIS6 tag) VHH: EVQLVESGGGLVQPGGSLRLSCAASETIFSIDSMAWYRQAPGKQRELVAAITGGGSPNYADSVKGRFTISSDVAKRTVYLQMNSLKPEDTAVYYCNAEGQAGWGTALMDYWGKGTLVTVSS
3. A0231034A08 (VHH, Monovalent Nanobody expressed in E. coli with a triple Flag, HIS6 tag; also called A0231PMP034A08; PA0231PMP034A08.1; not shown: C-terminal triple FLAG and HIS6 tag) VHH: EVQLVESGGDLVQPGGSLRLSCAASGSVFSINDMGWFRQAPGKQRELVADIISRGVTNYADSVKGRFTISGDPAKNTVYLQMNSLKPEDTAVYYCNAHISTGWGRPHNNYWGQGTQVTVSS
4. A0231033B02 (VHH, Monovalent Nanobody expressed in E. coli with a triple Flag, HIS6 tag; also called A0231PMP033B02; PA0231PMP033B02.1; not shown: C-terminal triple FLAG and HIS6 tag) VHH: EVQLVESGGGLVQPGGSLRLSCAASGTIFSISTMGWYRQAPGKQREVVAVTSGFSTNYSSAVKGRFTLSRDPAKNTVFLQMNSLQPEDTATYYCNAYLSLAWRDPDRDYWGQGTQVTVSS
5. A0231003D11 (VHH, Monovalent Nanobody expressed in E. coli with a triple Flag, HIS6 tag; also called A0231PMP003D11; PA0231PMP003D11.1; not shown: C-terminal triple FLAG and HIS6 tag) VHH: EVQLVESGGGLVQAGESLRLSCAASGSIFSIDAMGWYRQAPGKQRELVAEISDHTTYGDSVKGRFTISRGNAENTVALQMNSLKPEDTGVYYCNVHHQRGWGTSITVTWGQGTQVTVSS

["0.09 s⁻¹", "0.0023 s⁻¹", "0.00067 s⁻¹", "0.008 s⁻¹", "0.0029 s⁻¹"]
